- Tested on: RAW264.7
- TEST DESCRIPTION: Antiinflammatory activity in mouse RAW264.7 cells assessed as inhibition of LPS-stimulated nitric oxide production at 20 uM after 18 hrs by Griess assay relative to control
- Type: functional
- RECORDED CONDITIONS: RAW264.7, 18 h
PROPERTY: inhibition at 20 µM (%)

>>> assay_value("COc1c(/C=C/C(=O)c2ccc(O)cc2O)ccc(O)c1O")
96.5
>>> assay_value("COc1c(/C=C/C(=O)c2ccc(O)cc2)ccc(O)c1O")
69.6
>>> assay_value("COc1c(/C=C/C(=O)c2ccc(O)c(O)c2)ccc(O)c1O")
92.5
>>> assay_value("COc1c(/C=C/C(=O)c2ccc(O)c(CC=C(C)C)c2)ccc(O)c1O [LICOCHALCONE D]")
95.4
>>> assay_value("C=CC(C)(C)c1cc(C(=O)/C=C/c2ccc(O)c(O)c2OC)ccc1O")
96.1
>>> assay_value("C=C(C)C(C)c1cc(C(=O)/C=C/c2ccc(O)c(O)c2OC)ccc1O (stereo unspecified)")
94.3
